The origin of these recorded values is paper PMC4577306.

Reported values of pKd for individual entries
SYSTEM NAME: human RIIα (Homo sapiens, UniProt P13861)
Sequence (P13861 whole entry): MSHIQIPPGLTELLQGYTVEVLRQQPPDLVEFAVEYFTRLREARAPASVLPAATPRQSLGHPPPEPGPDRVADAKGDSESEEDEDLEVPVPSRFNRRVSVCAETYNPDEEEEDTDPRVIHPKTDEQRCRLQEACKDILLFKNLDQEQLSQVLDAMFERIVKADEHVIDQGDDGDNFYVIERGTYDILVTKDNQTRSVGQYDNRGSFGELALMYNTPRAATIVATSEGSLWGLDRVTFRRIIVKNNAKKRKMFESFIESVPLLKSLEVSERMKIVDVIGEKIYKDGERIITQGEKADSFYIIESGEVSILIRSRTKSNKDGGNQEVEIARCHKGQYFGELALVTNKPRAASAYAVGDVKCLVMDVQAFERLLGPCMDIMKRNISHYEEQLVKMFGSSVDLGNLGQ
ASSAY TEXT: SPR kinetics of RIIα on immobilized neurochondrin peptides
Type: binding
No end group written: not given here.
Expect pKd as a plain number equal to -log10 of the molar concentration.

1. KLSSWQRNPALKLAARLAHA-NH2 [peptide II]
8.02

**Q:** Consider the substance YAGDIDAKTRRRIFDAVGFTF-NH2 [peptide I] . State its measured pKd.
**A:** 8.03
